Assay: Pharmacokinetic analysis of RA in an SH-SY5Y xenograft model (retinoid concentrations in plasma, liver, tumour by LC/MS)
Format: in vivo, CD-1 nude mice
Conditions: female, CD-1 nu/nu (athymic nude), mouse, tumour (SH-SY5Y xenograft), po, 100 mg kg^−1, after ATRA 100 mg kg^−1 oral; SH-SY5Y tumour; 6 h; label = retinoid measured; read-out: Tumour concentration, 6 h
measurement_name: concentration at 6 h (ng/g)

[a] CC1=C(/C=C/C(C)=C/C=C/C(C)=C\C(=O)O)C(C)(C)CCC1 [13cisRA, 13-cis-retinoic acid]
[b] CC1=C(/C=C/C(C)=C/C=C/C(C)=C/C(=O)O)C(C)(C)CCC1 [ATRA, all-trans-retinoic acid]
Exercise: Kindly compare a with b and tell me which has the lower concentration at 6 h figure. Reply with the label of the item you choose.
Solution: a
